# credit: patent US20220227782A1

# reported CC50; entries follow
Experiment: CC50 test, median cytotoxic concentration against RORγt-LBD+-Jurkat cells
Type: cell-based
Details: human
Excerpt: EC50 and CC50 tests: EC50 (half maximal (50%) effective concentration) is a half maximal effective concentration against RORγt-LBD+-Jurkat cells, and CC50 (median (50%) cytotoxic concentration) is a median cytotoxic concentration against RORγt-LBD+-Jurkat cells.
property.name: CC50

INSERT INTO measurements (compound, value) VALUES
  ('Cc1nc(Sc2nnnn2-c2ccccc2)c2c3c(sc2n1)CC(C(=O)NCc1ccccc1)CC3 (centres unmarked) [Compound 18]', '> 10 µM'),
  ('Cc1nc(Sc2nnnn2-c2ccccc2)c2c3c(sc2n1)CC(C(C)(C)C)CC3 (centres unmarked) [Compound 11]', '< 1 µM'),
  ('Cc1nc(Sc2nnnn2-c2ccccc2)c2c3c(sc2n1)CC(C(=O)Nc1ccc(C(C)C)cc1)CC3 (centres unmarked) [Compound 17]', '< 1 µM'),
  ('Cc1nc(Sc2nnnn2-c2ccccc2)c2c3c(sc2n1)CC(C(=O)Nc1ncc(C)s1)CC3 (centres unmarked) [Compound 22]', '4.32 µM'),
  ('Cc1cccc(NC(=O)C2CCc3c(sc4nc(C)nc(Sc5nnnn5-c5ccccc5)c34)C2)c1 (centres unmarked) [Compound 16]', '< 10 µM'),
  ('Cc1nc(Sc2nnnn2-c2ccccc2)c2c3c(sc2n1)CC(C(=O)Nc1ccc(Br)cc1)CC3 (centres unmarked) [Compound 20]', '< 10 µM'),
  ('Cc1nc(Sc2nnnn2-c2ccccc2)c2c3c(sc2n1)CC(C(=O)Nc1cccnc1)CC3 (centres unmarked) [Compound 23]', '< 5 µM'),
  ('Cc1nc(Sc2nnnn2-c2ccccc2)c2c3c(sc2n1)CCCC3 [Compound 6]', '3.98 µM');
